System: Mus musculus
method: Number of mice cured at a subcutaneous dose of 640 mg/kg.
Assay type: functional
Measured No. of cured, listed per entry.
recorded.metric: No. of cured

In [3]: df
Out[3]:
                                   compound  reported
0  CN(C)C1CCC(Nc2nc(Nc3cc(Cl)cc(Cl)c3)nc3ccccc23)CC1 (stereo in doubt; 25)         5
1  CN1CCCC1CCNc1nc(Nc2ccc(Cl)c(Cl)c2)nc2ccccc12 (stereo not given)         4
2  CCN1CCC(CNc2nc(Nc3ccc(Cl)c(Cl)c3)nc3ccccc23)CC1         5
3  CN1CCCC1CCNc1nc(Nc2ccc(C(F)(F)F)cc2)nc2ccccc12 (stereo not given)         4
4  CCN1CCCC(Nc2nc(Nc3ccc(Cl)cc3)nc3ccccc23)C1 (stereo not given)         3

----------
System: Plasmodium berghei
method: Antimalarial effect against trophozoite-induced Plasmodium berghei in mice (Mus musculus) at 320 mg/kg subcutaneous dose
Assay type: functional
Output true (1) for MST not less than 10 days; output false (0) otherwise.

In [3]: df
Out[3]:
                                    compound  discrete_label
 0  CN1CCCC1CCNc1nc(Nc2ccc(Cl)c(Cl)c2)nc2ccc(Cl)cc12 (stereo unspecified)        true (1)
 1   CSc1ccc(Nc2nc(NCCN3CCCC3)c3ccccc3n2)cc1        true (1)
 2  CCN(CC)C1CCC(Nc2nc(Nc3cc(Br)cc(Br)c3)nc3ccccc23)CC1 (stereo unspecified)        true (1)
 3  CCN1CCC(CNc2nc(Nc3ccc(C(F)(F)F)cc3)c3ccccc3n2)CC1       false (0)
 4  Clc1ccc(Nc2nc(NCCCN3CCCCC3)nc3ccccc23)cc1Cl       false (0)
 5  CN1CCCC1CCNc1nc(Nc2cc(Cl)cc(Cl)c2)nc2ccc(Cl)cc12 (stereo unspecified)        true (1)
 6  CCN(CC)CCNc1nc(Nc2cc(Cl)cc(Cl)c2)nc2ccccc12        true (1)
 7   Clc1cccc(Nc2nc(NCCN3CCCC3)c3ccccc3n2)c1       false (0)
 8  CCN(CC)CCNc1nc(Nc2ccc(N3CCN(C)CC3)cc2)nc2ccccc12       false (0)
 9  CCN1CCCC(Nc2nc(Nc3ccc(Cl)c(Cl)c3)nc3ccccc23)C1 (stereo unspecified)        true (1)
10  CCN(CC)CCCNc1nc(Nc2cc(Cl)cc(Cl)c2)c2ccccc2n1       false (0)
11  CCN(CC)CCNc1nc(Nc2ccc(Cl)c(Cl)c2)nc2cc([N+](=O)[O-])ccc12       false (0)
12  CCN(CC)CCNc1nc(Nc2ccc(Cl)c(Cl)c2)c2ccccc2n1       false (0)
13  CCN1CCCC(Nc2nc(Nc3ccc(Cl)cc3)nc3ccccc23)C1 (stereo unspecified)        true (1)
14  CCN(CC)CCNc1nc(Nc2ccc(Cl)c(Cl)c2)nc2ccc(NCc3ccc(Cl)c(Cl)c3)cc12       false (0)
15   Brc1cccc(Nc2nc(NCCN3CCCC3)c3ccccc3n2)c1       false (0)
16  CCN(CC)CCNc1nc(Nc2ccc(C(F)(F)F)cc2)c2ccccc2n1       false (0)
17  CCN(CC)CCCC(C)Nc1nc(Nc2ccc([N+](=O)[O-])cc2)c2ccccc2n1 (stereo unspecified)       false (0)
18  CCN(CC)CCCNc1nc(Nc2ccc(Cl)c(Cl)c2)c2ccccc2n1       false (0)
19  FC(F)(F)c1ccc(Nc2nc(NCCCN3CCCC3)c3cc(Cl)ccc3n2)cc1        true (1)

----------
System: Plasmodium berghei
method: Antimalarial effect against trophozoite-induced Plasmodium berghei in mice (Mus musculus) at 80 mg/kg subcutaneous dose
Assay type: functional
Below, each entry is listed alongside its reported MST.
recorded.metric: MST

>>> df
                                   compound  recorded_metric   reported
0  CCN1CCC(CNc2nc(Nc3ccc(Cl)c(Cl)c3)nc3ccccc23)CC1              MST   9.1 days
1   Brc1cccc(Nc2nc(NCCN3CCCC3)c3ccccc3n2)c1              MST   0.4 days
2  CCN1CCCC(Nc2nc(Nc3cc(Cl)cc(Cl)c3)c3ccccc3n2)C1 (stereo not given)              MST   0.2 days
3   Clc1ccc(Nc2nc(NCCN3CCCC3)c3ccccc3n2)cc1              MST   1.1 days
4   CSc1ccc(Nc2nc(NCCN3CCCC3)c3ccccc3n2)cc1              MST   3.3 days
5  CCN(CC)CCCC(C)Nc1nc(Nc2cc(OC)c(OC)c(OC)c2)c2ccccc2n1 (stereo not given)              MST  -0.3 days
6  CCN(CC)CCCC(C)Nc1nc(Nc2ccc([N+](=O)[O-])cc2)c2ccccc2n1 (stereo not given)              MST   1.4 days
7  CN1CCCC1CCNc1nc(Nc2cc(Cl)cc(Cl)c2)nc2ccc(Cl)cc12 (stereo not given)              MST     5 days
8  CCN(CC)CCNc1nc(Nc2ccc(C(F)(F)F)cc2)c2ccccc2n1              MST  -0.2 days
9  C=C[C@H]1CN2CC[C@H]1C[C@H]2[C@H](O)c1ccnc2ccc(OC)cc12              MST   1.4 days

----------
System: Mus musculus
method: Number of mice cured at a subcutaneous dose of 320 mg/kg.
Format: functional
If the reported No. of survivals equals or exceeds 3, assign met. If not, assign not met.

>>> print(df.to_string())
                                   compound  discrete_label
0  CCN1CCC(CNc2nc(Nc3ccc(Cl)c(Cl)c3)c3ccccc3n2)CC1             met
1  CCN(CC)C1CCC(Nc2nc(Nc3ccc(C(F)(F)F)cc3)c3ccccc3n2)CC1 (stereo unspecified)             met
2  CCN(CC)Cc1cc(Nc2nc(NCCN3CCCC3)c3ccccc3n2)ccc1O         not met
3  CN(C)C1CCC(Nc2nc(Nc3cc(Cl)cc(Cl)c3)nc3ccccc23)CC1 (stereo in doubt; 26)             met
4  CCN(CC)CCNc1nc(Nc2ccc(C(F)(F)F)cc2)nc2ccccc12             met
5  CN1CCCC1CCNc1nc(Nc2ccc(Cl)c(Cl)c2)nc2ccc(Cl)cc12 (stereo unspecified)         not met
6  CCN(CC)C1CCC(Nc2nc(Nc3ccc(Cl)c(Cl)c3)nc3ccc(Cl)cc23)CC1 (stereo unspecified)         not met
7  OC1CCCN(CCCNc2nc(Nc3ccc(Cl)cc3)nc3ccccc23)C1 (stereo unspecified)         not met
8  OC1CCCN(CCCNc2nc(Nc3ccc(I)cc3)nc3ccccc23)C1 (stereo unspecified)         not met

----------
Test system: Mus musculus
method: Number of toxic deaths at a dose of 640 mg/kg
Format: toxicity, organism-based
Design: dose 640 mg/kg
condition.parameters: in vivo
Below is a list of entries, each paired with its recorded No. of toxic deaths value.
recorded.metric: No. of toxic deaths

                                   molecule  reported
0  CCN(CC)CCNc1nc(NCc2ccc(Cl)c(Cl)c2)nc2ccccc12         5
1  CSc1ccc(Nc2nc(NCCCN3CCCC3)c3ccccc3n2)cc1         5
2  CCN(CC)Cc1cc(Nc2nc(NCCN3CCCC3)c3ccccc3n2)ccc1O         1
3  CCN(CC)CCNc1nc(Nc2ccc(Cl)c(Cl)c2)nc2ccc(N)cc12         2
4  CN1CCCC1CCNc1nc(Nc2ccc(Cl)c(Cl)c2)c2ccccc2n1 (centres undefined)         2
5  CN(C)C1CCC(Nc2nc(Nc3ccc(Cl)c(Cl)c3)c3ccccc3n2)CC1 (centres undefined)         2
6  CCN(CC)CCNc1nc(Nc2ccc(N3CCN(C)CC3)cc2)nc2ccccc12         3
7  CCOc1ccc(Nc2nc(NCCN(CC)CC)c3cc(Cl)ccc3n2)cc1CN(CC)CC         5
8  CCN(CC)Cc1cc(Nc2nc(NC3CCC(N(C)C)CC3)c3ccccc3n2)ccc1OC (centres undefined)         5

----------
Test system: Plasmodium berghei
method: Antimalarial effect against trophozoite-induced Plasmodium berghei in mice (Mus musculus) at 640 mg/kg subcutaneous dose
Format: functional
recorded.metric: MST (days)

                                    molecule  recorded_metric  reported
 0  CN(C)C1CCC(Nc2nc(Nc3cccc(Br)c3)c3ccccc3n2)CC1 (stereo not given)              MST       0.7
 1  FC(F)(F)c1cc(Nc2nc(NCCN3CCCC3)c3ccccc3n2)cc(C(F)(F)F)c1              MST         1
 2  CCN(CC)CCCC(C)Nc1nc(Nc2ccc(O)c(CN(CC)CC)c2)c2ccccc2n1 (stereo not given)              MST       5.6
 3  CCN(CC)CCNc1nc(Nc2ccc(Cl)c(Cl)c2)nc2ccc([N+](=O)[O-])cc12              MST      20.6
 4  CCN(CC)CCNc1nc(Nc2cc(Cl)c(Cl)cc2Cl)nc2ccccc12              MST       1.2
 5  CN1CCCC1CCNc1nc(Nc2ccc(C(F)(F)F)cc2)c2ccccc2n1 (stereo not given)              MST       7.7
 6  CCN(CC)CCCC(C)Nc1nc(Nc2ccc(C(F)(F)F)cc2)c2ccccc2n1 (stereo not given)              MST       1.6
 7  OC1CCCN(CCCNc2nc(Nc3ccc(I)cc3)nc3ccccc23)C1 (stereo not given)              MST      24.1
 8  CCN1CCCC(Nc2nc(Nc3cc(Cl)cc(Cl)c3)nc3cc(Cl)ccc23)C1 (stereo not given)              MST       1.6
 9  Clc1cc(Cl)cc(Nc2nc(NCCCN3CCCC3)nc3ccccc23)c1              MST       1.2
10  CN(C)C1CCC(Nc2nc(Nc3ccc(C(F)(F)F)cc3)c3ccccc3n2)CC1 (stereo not given)              MST       0.7
11  CN(C)c1ccc(Nc2nc(NC3CCC(N(C)C)CC3)nc3ccccc23)cc1 (stereo not given)              MST       1.1
12  OC1CCCN(CCCNc2nc(Nc3cccc4nsnc34)nc3ccccc23)C1 (stereo not given)              MST         0
13  C=C[C@H]1CN2CC[C@H]1C[C@H]2[C@H](O)c1ccnc2ccc(OC)cc12              MST       5.4
14  CN1CCCC1CCNc1nc(Nc2ccc(Cl)c(Cl)c2)nc2ccc(Cl)cc12 (stereo not given)              MST      13.6
15  CCN(CC)CCCC(C)Nc1nc(Nc2ccc([N+](=O)[O-])cc2)c2ccccc2n1 (stereo not given)              MST       4.3
16  Clc1cc(Cl)cc(Nc2nc(NCCCN3CCCCC3)nc3ccccc23)c1              MST       1.6
17  CCN(CC)CCNc1nc(Nc2ccc(Cl)c(Cl)c2)nc2cc(NCc3ccc(Cl)c(Cl)c3)ccc12              MST       8.9
18  OC1CCCN(CCCNc2nc(Nc3nc(-c4ccccc4)cs3)nc3ccccc23)C1 (stereo not given)              MST       0.8
19  FC(F)(F)c1ccc(Nc2nc(NCCCN3CCCCC3)nc3ccccc23)cc1              MST       2.4
